The measured values listed here are drawn from PubChem BioAssay AID685.

- assay-notes: yeast growth toxicity, wild-type and mutant, primary screen, cytotoxicity control for eIF2B function restoration project, wild-type and eIF2Bepsilon R284H mutant, A595 (AID 685);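 also: 0% = untreated cell controls and 100% = YPD media blanks without cells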
- stated-conditions: S. cerevisiae eIF2Bepsilon-R284H mutant growth, A595 turbidity, 16 h; stronger effect = higher value; screened at 25 µM (by protocol)
In all, about 30,000 compounds went through this assay and about 80 (0.3%) were called active. For the sample, actives were picked, then their nearest neighbours and some compounds at random.
Short version: growth inhibition at least 10% is yes, less is no.

Previously resolved entries follow.
Exam item: decide whether the reported growth inhibition for Cc1ccc(S(=O)(=O)N2CCN(S(=O)(=O)N3CCOCC3)CC2)cc1 is at least 10%.
no

CN1C(=O)C(CC(N)=O)N(NC(=O)c2ccc(Cl)cc2)C1=S (stereo not drawn) ?
no

Field entry: CCOC(=O)CSc1nc2ccc(C)cc2[nH]1
no

Similarly, CCc1cc(Br)ccc1NC(=O)C1CCCO1 (stereo not drawn) ?
yes

What would you report for COC(=O)COc1ccc(S(=O)(=O)N2CCOCC2)cc1 ?
no

New cases:
Decide: is the reported value of growth inhibition for Cc1[nH][nH]c(=O)c1C(c1ccc(-c2ccc(Cl)cc2)o1)c1c(C)[nH][nH]c1=O equal to or greater than 10%?
yes

Ok, now COC(=O)c1ccc(Cc2ccccc2)o1
yes

Try this compound too: Cc1ccc(N2C(=O)CC(Sc3ncn[nH]3)C2=O)cc1 (stereo not drawn)
yes

And then CCCCN1C(=O)/C(=C2/C=CC=CN2C)SC1=S , what is it?
yes

Queued: O=C(NCCCCCCNC(=O)NCc1ccco1)NCc1ccco1
yes

// repeat for O=C(c1ccc(CN2CCOCC2)cc1)N1CCN(c2ccccc2F)CC1 and report
no

Let us now turn to COc1ccc(OCC(=O)N2CCOCC2)cc1
yes

* * *

- assay-notes: yeast growth toxicity, wild-type and mutant, primary screen, cytotoxicity control for eIF2B function restoration project, wild-type and eIF2Bepsilon R284H mutant, A595 (AID 685);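 also: 0% = untreated cell controls and 100% = YPD media blanks without cells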
- stated-conditions: S. cerevisiae wild-type growth, A595 turbidity, 16 h; stronger effect = higher value; screened at 25 µM (by protocol)
The whole screen tested about 30,000 compounds, of which about 80 (0.3%) were called active. The sample as a whole holds a higher share of actives than the screen did.
experimental-readout: growth inhibition (%)
One number for each entry, in %.

Requested field: growth inhibition. Item: CCOC(=O)N1CCN(C(=O)COc2ccc(Br)cc2)CC1
10.3

Return reported growth inhibition values for all items listed beneath this line.
1. CCCOc1ccc(C2NC(=O)NC(c3ccccc3)=C2C(C)=O)cc1OCC (stereo not given)
2. CC(C)(C)N1CC(c2nc3ccccc3n2Cc2ccc(F)cc2)CC1=O (stereo not given)

1. 4.64
2. 5

Please look at the items below and tell me growth inhibition for each one, in order.
1. O=C(CN1CCOCC1)Nc1ccccc1
2. Cc1ccc(C2C(C#N)C(C#N)N3CCCN23)cc1 (stereo not given)

[11.2, -7.5]

* * *

Please provide measured growth inhibition for the entries that follow.
- assay-notes: yeast growth toxicity, wild-type and mutant, primary screen, cytotoxicity control for eIF2B function restoration project, wild-type and eIF2Bepsilon R284H mutant, A595 (AID 685);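 also: 0% = untreated cell controls and 100% = YPD media blanks without cells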
- stated-conditions: S. cerevisiae wild-type growth, A595 turbidity, 16 h; stronger effect = higher value; screened at 25 µM (by protocol)
Screen size: about 30,000 compounds; about 80 (0.3%) were called active. This excerpt belongs to a sample that is enriched for actives.
Answers are plain numbers, in %.

What value of growth inhibition has been recorded for this entry: COc1ccc(CN2CN(C(C)C)CSC2=S)cc1
44.7

Provide the reported growth inhibition of each entry below, same order.
1. O=C(CCc1ccccc1)NCc1cccnc1
2. CCC(c1nnnn1C1CCCC1)N1CCN(C(=O)c2ccco2)CC1 (stereo not drawn)
3. CCN(c1ccccc1)S(=O)(=O)c1ccc(C(=O)Nc2nccs2)cc1
4. Cc1ccc(Cc2c(C)nc3nc(SCC(=O)NCCN4CCOCC4)nn3c2C)cc1
5. O=c1c2ccccc2nc(CSc2nnnn2-c2ccccc2)n1-c1ccccc1
6. COC(=O)c1c(C)c(C)nc(N)c1C#N
7. COc1ccc(NC(=O)CC2COc3ccccc3O2)c(OC)c1 (stereo not drawn)
8. C=CCc1ccc(OCCOc2cccc(/C=N/n3cnnc3)c2)c(OC)c1

[-12.1, -4.24, 18.7, 3.33, -3.81, -10.8, 20, 5]

Could you report growth inhibition for every entry in the following list?
1. CC(=NCc1ccco1)c1c(C(F)(F)F)[nH]n(-c2nc3ccccc3s2)c1=O
2. Cc1ccc(OCCCC(=O)Nc2ccc(N3CCOCC3)cc2)cc1
3. COC(=O)c1sc(=S)n(-c2ccc(Cl)cc2)c1C
4. Cc1cc(=O)[nH]c(SCC(=O)N2c3ccccc3CC2C)n1 (stereo not drawn)
5. CCC(O)CNc1nc(-n2nc(C)cc2C)nc2sc3c(c12)CC(C)(C)OC3 (stereo not drawn)
6. O=C(Cn1cnc2ccccc2c1=O)NCC1COc2ccccc2O1 (stereo not drawn)

[34.2, 12.7, 9.64, 4.67, 4.83, 3.57]

* * *

- assay-notes: yeast growth toxicity, wild-type and mutant, primary screen, cytotoxicity control for eIF2B function restoration project, wild-type and eIF2Bepsilon R284H mutant, A595 (AID 685);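 also: 0% = untreated cell controls and 100% = YPD media blanks without cells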
- stated-conditions: S. cerevisiae wild-type growth, A595 turbidity, 16 h; screened at 25 µM (by protocol)
In all, about 30,000 compounds went through this assay and about 80 (0.3%) were called active.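 How the source made its calls: active means mutant and wild-type yeast strains alike exhibit over 30% growth inhibition; inconclusive means a strain exceeds 50% while the second remains under 30%; inactive means the rest.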 For the sample, actives were picked, then their nearest neighbours and some compounds at random.
Please state which outcome applies, choosing from 1 (active), -1 (inactive)

For O=C(O)c1cc2ccccc2c(=O)s1 , what call appears in the results of this test?
-1

Try the molecule CN(Cc1ccccc1)C(=O)COc1ccccc1
-1

Similarly, CC1=NN(/C(=N\c2nnc(C)s2)Nc2ccccc2)[C@H](c2ccc(C)cc2)S1 ?
-1

Cool, now COC(=O)c1ccccc1NC(=O)CN(Cc1ccc(Cl)cc1)S(C)(=O)=O
-1

Input CS(=O)(=O)N(CC(=O)N1CCN(c2ccc(F)cc2)CC1)C1CCCCC1
-1

***
Identify the outcome logged in this assay for the molecule shown: O=S(=O)(NCCOc1cccc2cccnc12)c1ccc(F)cc1
-1

Now consider OC(C#CCN1CCOCC1)(c1ccccc1)C1CCCCC1 (centres undefined) .
-1

Same again, this time with COc1ccc(N2CCN(Cc3ccc(Br)s3)CC2)cc1
-1

Field entry: O=C(O)CCC(=O)NCc1ccc(C(=O)O)cc1
-1

Follow-up entry: CCc1cc(Br)ccc1NC(=O)C1CCCO1 (centres undefined)
-1

What about CCCCc1nnc(NC(=O)CSc2nc(C)cc(=O)[nH]2)s1 ?
-1

Same thing, different molecule: COC(=O)C1CCN(CC(N)=O)CC1
-1

Proceed to CC(C)(C)NC(=O)CN(Cc1cccs1)C(=O)CNS(=O)(=O)c1ccccc1
-1

Likewise for COc1ccc(O)c(C(=O)c2cnc3onc(C(C)C)c3c2)c1 ?
-1

* * *

- assay-notes: yeast growth toxicity, wild-type and mutant, primary screen, cytotoxicity control for eIF2B function restoration project, wild-type and eIF2Bepsilon R284H mutant, A595 (AID 685);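 also: 0% = untreated cell controls and 100% = YPD media blanks without cells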
- stated-conditions: S. cerevisiae eIF2Bepsilon-R284H mutant growth, A595 turbidity, 16 h; stronger effect = higher value; screened at 25 µM (by protocol)
The whole screen tested about 30,000 compounds, of which about 80 (0.3%) were called active. The sample as a whole holds a higher share of actives than the screen did.
Hi there, I'd appreciate the recorded growth inhibition for every entry that follows.
Numbers only, in %.

# annotated cases, reported growth inhibition shown
Bench note: what growth inhibition did CCN(c1ccccc1)S(=O)(=O)c1ccc(NC(=O)C(C)(C)C)cc1 show?
15

Now try CN1CCN(C(=O)Cn2c(C(F)(F)F)nc3ccccc32)CC1 .
25

Same lookup for COc1ccc(NC(=O)COC(=O)Cn2c(C)nc3ccccc32)cc1OC , please.
-9.52

And what about the molecule Cc1ccc(-c2csc(NC(=O)Cc3cccs3)n2)cc1C ?
0

Consider the following items and state reported growth inhibition for each.
1. Cc1[nH]n(-c2cccc(Cl)c2)c(=O)c1/C=N/n1c(C)nc2ccccc2c1=O
2. Cc1ccc(C(=O)CSc2nnc(Cn3nnc4ccccc43)n2C)cc1

1. 2.56
2. 3.7

* * *

- assay-notes: yeast growth toxicity, wild-type and mutant, primary screen, cytotoxicity control for eIF2B function restoration project, wild-type and eIF2Bepsilon R284H mutant, A595 (AID 685);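 also: 0% = untreated cell controls and 100% = YPD media blanks without cells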
- stated-conditions: S. cerevisiae wild-type growth, A595 turbidity, 16 h; stronger effect = higher value; screened at 25 µM (by protocol)
Screen size: about 30,000 compounds; about 80 (0.3%) were called active. This excerpt belongs to a sample that is enriched for actives.
experimental-readout: growth inhibition (%)
One number for each entry, in %.

Need growth inhibition for each of these molecules.
1. CS(=O)(=O)Nc1ccc(C(=O)N2CCCC2)cc1
2. COc1ccc(CN(Cc2ccco2)S(=O)(=O)c2ccc(S(=O)(=O)N3CCCC3)cc2)cc1

[38.3, 16.6]

Please state, for each entry, its recorded growth inhibition.
1. Cc1cc(C)n(-c2ccc(Cl)c(C(=O)O)n2)n1
2. CC(C)C[C@@H](N)c1nnc(SCC(=O)c2ccc(Cl)cc2)o1
3. Cn1c(Cn2nnc3ccccc32)nnc1SCC(=O)c1ccccc1F
4. CC(C)(C)C(=O)Cn1c(NCCO)nc2ccccc21
5. Cc1cccc(S(=O)(=O)CC(=O)Nc2nc(-c3ccccc3)cs2)c1

1. 22.7
2. -22.1
3. 4.07
4. 21
5. 3.33

Dear colleague, could you please provide growth inhibition for the molecules listed below?
1. CCCCSc1[nH]c(=O)c(C(=O)OCC)cc1C#N
2. NC(=O)c1ncc(C(F)(F)F)cc1Oc1ccc(F)cc1
3. Cc1ccc(C(=O)CSc2nnc(Cn3nnc4ccccc43)n2C)cc1
4. CC1CCc2c(sc3nc4n(c(=O)c23)CCS4)C1 (stereo unspecified)

2.76
19.2
16.7
36.9
